# EXPERIMENTAL_SYSTEM: Neuraminidase (Influenza A virus (A/Puerto Rico/8/1934(H1N1))) (UniProt P03468)
# Sequence (P03468 whole entry): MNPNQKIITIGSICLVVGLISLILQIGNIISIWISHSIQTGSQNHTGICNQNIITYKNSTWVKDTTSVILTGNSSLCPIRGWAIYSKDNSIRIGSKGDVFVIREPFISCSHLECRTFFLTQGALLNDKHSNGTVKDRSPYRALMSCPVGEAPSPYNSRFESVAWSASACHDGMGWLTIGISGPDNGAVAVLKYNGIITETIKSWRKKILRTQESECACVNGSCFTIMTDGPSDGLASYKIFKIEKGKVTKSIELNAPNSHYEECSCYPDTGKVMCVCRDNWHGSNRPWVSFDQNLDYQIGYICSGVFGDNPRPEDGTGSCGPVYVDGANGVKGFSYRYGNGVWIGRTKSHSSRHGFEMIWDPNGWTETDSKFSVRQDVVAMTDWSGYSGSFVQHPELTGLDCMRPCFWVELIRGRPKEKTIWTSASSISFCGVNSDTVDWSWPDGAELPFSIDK
# METHOD_SUMMARY: Irreversible inhibition of influenza A virus (A/WSN/1933(H1N1)) neuraminidase using MUNANA as fluorogenic substrate preincubated up to 48 hrs followed by substrate addition and measured after 15 mins by fluorometric assay
Calls of active or inactive are those of the source. The rule behind the calls is not given here.

TEST_SMILES: CCC(CC)O[C@@H]1C=C([B-](F)(F)F)C[C@H](NC(=N)N)[C@H]1NC(C)=O
EXPERIMENTAL_SYSTEM: Neuraminidase (Influenza A virus (A/Puerto Rico/8/1934(H1N1))) (UniProt P03468)
inhibition: inactive
--
TEST_SMILES: CCC(CC)O[C@@H]1C=C(B(O)O)C[C@H](N)[C@H]1NC(C)=O
EXPERIMENTAL_SYSTEM: Neuraminidase (Influenza A virus (A/Puerto Rico/8/1934(H1N1))) (UniProt P03468)
inhibition: inactive
--
TEST_SMILES: CCC(CC)O[C@@H]1C=C(B(O)O)C[C@H](NC(=N)N)[C@H]1NC(C)=O
EXPERIMENTAL_SYSTEM: Neuraminidase (Influenza A virus (A/Puerto Rico/8/1934(H1N1))) (UniProt P03468)
inhibition: inactive
--
TEST_SMILES: CCC(CC)O[C@@H]1C=C([B-](F)(F)F)C[C@H](N)[C@H]1NC(C)=O
EXPERIMENTAL_SYSTEM: Neuraminidase (Influenza A virus (A/Puerto Rico/8/1934(H1N1))) (UniProt P03468)
inhibition: inactive
